Target: human delta-like ligand 3 (DLL3) on SHP77 cells (human) (UniProt Q9NYJ7)
Sequence (Q9NYJ7 27-618, stated change not applied): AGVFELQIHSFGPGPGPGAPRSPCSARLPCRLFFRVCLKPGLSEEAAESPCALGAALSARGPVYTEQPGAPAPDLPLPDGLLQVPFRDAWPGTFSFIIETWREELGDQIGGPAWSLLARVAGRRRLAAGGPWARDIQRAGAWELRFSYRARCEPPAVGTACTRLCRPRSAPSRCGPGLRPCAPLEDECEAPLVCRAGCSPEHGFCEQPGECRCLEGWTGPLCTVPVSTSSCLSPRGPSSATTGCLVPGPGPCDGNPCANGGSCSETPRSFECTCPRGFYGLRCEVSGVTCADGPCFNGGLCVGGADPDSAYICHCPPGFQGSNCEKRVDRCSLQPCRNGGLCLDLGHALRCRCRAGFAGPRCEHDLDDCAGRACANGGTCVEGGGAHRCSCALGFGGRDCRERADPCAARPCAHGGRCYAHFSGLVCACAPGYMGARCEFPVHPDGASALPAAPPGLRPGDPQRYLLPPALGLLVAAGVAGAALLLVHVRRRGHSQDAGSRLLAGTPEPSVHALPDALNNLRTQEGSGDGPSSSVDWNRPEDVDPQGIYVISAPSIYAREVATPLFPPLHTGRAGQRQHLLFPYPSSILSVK
Test: FACS on SHP77 cells

[
  {
    "binder": "Hab015VL5VH1b-hFc (scFv, part only; not given: VL-VH linker and human IgG1 Fc, V domains shown, not shown: another chain or arm of the molecule; a dimerising Fc or GST; small tags and cut ends) VL: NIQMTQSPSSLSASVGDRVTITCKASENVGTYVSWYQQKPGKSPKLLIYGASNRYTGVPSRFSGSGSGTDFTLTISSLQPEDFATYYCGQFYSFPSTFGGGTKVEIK VH: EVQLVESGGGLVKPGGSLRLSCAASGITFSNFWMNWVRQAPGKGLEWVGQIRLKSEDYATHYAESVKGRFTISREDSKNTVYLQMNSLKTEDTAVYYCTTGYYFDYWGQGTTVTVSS",
    "MFI at 0.8 nM": "632 MFI"
  }
]
